biological target: Peroxisome proliferator-activated receptor gamma (Homo sapiens); assay: Displacement of [3H]rosiglitazone from human recombinant PPARgamma LBD expressed in insect cells measured after 24 hrs by scintillation counting analysis
Sequence (P37231 whole entry, the tested form may be a part): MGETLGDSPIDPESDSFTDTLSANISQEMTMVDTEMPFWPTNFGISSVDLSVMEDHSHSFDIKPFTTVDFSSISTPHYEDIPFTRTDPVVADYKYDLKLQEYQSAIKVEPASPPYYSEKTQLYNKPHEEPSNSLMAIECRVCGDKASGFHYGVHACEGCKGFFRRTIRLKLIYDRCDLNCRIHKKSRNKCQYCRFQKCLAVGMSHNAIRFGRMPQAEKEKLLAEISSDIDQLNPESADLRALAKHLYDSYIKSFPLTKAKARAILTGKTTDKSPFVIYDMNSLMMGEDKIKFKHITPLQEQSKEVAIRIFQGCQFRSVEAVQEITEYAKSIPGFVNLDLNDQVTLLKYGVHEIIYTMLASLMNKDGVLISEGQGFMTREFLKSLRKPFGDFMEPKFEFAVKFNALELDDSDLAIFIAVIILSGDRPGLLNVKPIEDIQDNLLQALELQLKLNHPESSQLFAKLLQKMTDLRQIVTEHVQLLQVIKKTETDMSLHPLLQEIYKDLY
result_type: IC50 (nM)
Response body: numeric value in nM, unit text excluded.

Lookup: Given O=C(O)c1ccc(-c2nn(C(=O)c3c(Cl)cccc3C(F)(F)F)c3cccnc23)c(F)c1 , state its recorded IC50.
Found: 2000

====

test: Plasma concentration in C57BL/6 mouse at 10 mg/kg administered as single dose after 2 hrs; assay type: ADME, organism-based
result_type: concentration at 2 h
A complete answer gives the number and then names the unit.

Lookup: Given O=C(O)c1ccc(-c2nn(C(=O)c3c(Cl)cccc3C(F)(F)F)c3cccnc23)c(F)c1 , state its recorded concentration at 2 h.
Found: 4.1 µM

====

assay: Volume of distribution in Wistar Han rat at 0.5 mg/kg, iv or 1 mg/kg, po by LC-MS/MS analysis; format: ADME, organism-based; details: in vivo
Parameter Vd: see the listing below.
Response body: numeric value in L/kg, unit text excluded.

mol	result_unit	Vd
O=C(O)c1ccc(-c2nn(C(=O)c3c(Cl)cccc3C(F)(F)F)c3cccnc23)c(F)c1	L/kg	0.8

Now consider a different compound.
Lookup: Given O=C(O)[C@@H]1CCN(c2nn(C(=O)c3c(Cl)cccc3C3CC3)c3cccc(F)c23)C[C@H]1O , state its recorded Vd.
Found: 0.6

====

assay: Plasma concentration in C57BL/6 mouse at 3 mg/kg administered as single dose after 2 hrs; format: ADME, organism-based
result_type: concentration at 2 h (nM)
Response body: numeric value in nM, unit text excluded.

Lookup: Given O=C(O)c1ccc(-c2nn(C(=O)c3c(Cl)cccc3C(F)(F)F)c3cccnc23)c(F)c1 , state its recorded concentration at 2 h.
Found: 730

====

assay: Plasma concentration in C57BL/6 mouse at 30 mg/kg administered as single dose after 2 hrs; assay type: ADME, organism-based
result_type: concentration at 2 h (µM)
Response body: numeric value in µM, unit text excluded.

Lookup: Given O=C(O)c1ccc(-c2nn(C(=O)c3c(Cl)cccc3C(F)(F)F)c3cccnc23)c(F)c1 , state its recorded concentration at 2 h.
Found: 51

====

assay: Oral bioavailability in Beagle dog at 0.5 mg/kg by LC-MS/MS analysis; type: ADME, organism-based, Canis lupus familiaris; conditions: in vivo
result_type: bioavailability
A complete answer gives the number and then names the unit.

mol	result
O=C(O)c1ccc(-c2nn(C(=O)c3c(Cl)cccc3C(F)(F)F)c3cccnc23)c(F)c1	45%

Now consider a different molecule.
Lookup: Given O=C(O)[C@@H]1CCN(c2nn(C(=O)c3c(Cl)cccc3C3CC3)c3cccc(F)c23)C[C@H]1O , state its recorded bioavailability.
Found: 65%

====

experiment: Volume of distribution in Beagle dog at 0.25 mg/kg, iv or 0.5 mg/kg, po by LC-MS/MS analysis; format: ADME, organism-based, Canis lupus familiaris; conditions: in vivo
Parameter Vd: see the listing below.
Response body: numeric value in L/kg, unit text excluded.

mol	Vd [L/kg]
O=C(O)c1ccc(-c2nn(C(=O)c3c(Cl)cccc3C(F)(F)F)c3cccnc23)c(F)c1	0.4

Now consider a different molecule.
Lookup: Given O=C(O)[C@@H]1CCN(c2nn(C(=O)c3c(Cl)cccc3C3CC3)c3cccc(F)c23)C[C@H]1O , state its recorded Vd.
Found: 0.3
